- targetDesc: BRSK2 (human) (UniProt Q8IWQ3)
- Sequence (Q8IWQ3 whole entry, looked up): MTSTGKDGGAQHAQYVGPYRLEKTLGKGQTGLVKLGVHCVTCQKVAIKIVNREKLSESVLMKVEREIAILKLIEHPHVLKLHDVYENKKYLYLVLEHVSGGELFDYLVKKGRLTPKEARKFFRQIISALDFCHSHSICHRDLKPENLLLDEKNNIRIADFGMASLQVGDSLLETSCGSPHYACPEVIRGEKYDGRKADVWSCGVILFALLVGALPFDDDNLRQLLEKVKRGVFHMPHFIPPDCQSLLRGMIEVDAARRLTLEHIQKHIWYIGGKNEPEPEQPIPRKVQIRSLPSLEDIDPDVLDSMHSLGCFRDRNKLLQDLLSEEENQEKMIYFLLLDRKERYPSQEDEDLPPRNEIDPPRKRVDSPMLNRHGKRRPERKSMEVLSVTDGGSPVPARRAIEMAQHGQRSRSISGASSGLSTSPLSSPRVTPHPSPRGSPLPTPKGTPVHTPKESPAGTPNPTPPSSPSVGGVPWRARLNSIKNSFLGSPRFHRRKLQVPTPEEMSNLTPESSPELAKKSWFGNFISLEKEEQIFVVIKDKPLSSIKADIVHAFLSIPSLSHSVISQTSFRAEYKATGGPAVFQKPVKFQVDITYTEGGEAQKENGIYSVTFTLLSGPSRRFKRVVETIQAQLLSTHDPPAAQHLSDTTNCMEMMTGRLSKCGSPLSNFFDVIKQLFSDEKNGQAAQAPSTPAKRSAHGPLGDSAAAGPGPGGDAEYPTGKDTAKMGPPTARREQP
- testProtocol: KINOMEscan competition binding
- assayContext: compound 10.0 µM
propertyMeasured: kinase still bound, per cent of control (%)
Write the number in % without appending the unit.

Ask: Endpoint output: kinase still bound, per cent of control of O=c1cc(N2CCOCC2)oc2c(-c3cccc4c3sc3ccccc34)cccc12 . Value?
Reply: 100

Ask: Endpoint output: kinase still bound, per cent of control of CCN(CC)CCCCNc1ncc2c(n1)N(C)C(=O)N(c1c(Cl)c(OC)cc(OC)c1Cl)C2 . Value?
Reply: 100

Ask: Endpoint output: kinase still bound, per cent of control of COc1cc2ncnc(-n3nc(-c4ccccn4)nc3N)c2cc1OC . Value?
Reply: 14

Ask: Endpoint output: kinase still bound, per cent of control of O=C1NC(=O)/C(=C/c2ccc3nccc(-c4ccncc4)c3c2)S1 . Value?
Reply: 91

Ask: Endpoint output: kinase still bound, per cent of control of COc1cc(C(=O)N2CCC(N3CCN(C)CC3)CC2)ccc1Nc1ncc2c(n1)N(C)c1ccccc1C(=O)N2C . Value?
Reply: 64

Ask: Endpoint output: kinase still bound, per cent of control of COc1cc2ncn(-c3cc(OCc4ccccc4C(F)(F)F)c(C(N)=O)s3)c2cc1OC . Value?
Reply: 31

Ask: Endpoint output: kinase still bound, per cent of control of COc1cc(N2CCN(C)CC2)ccc1Nc1ncc2c(n1)N(C)c1ccccc1C(=O)N2C . Value?
Reply: 100

Ask: Endpoint output: kinase still bound, per cent of control of CNC(=O)c1cc(Oc2ccc(NC(=O)Nc3ccc(Cl)c(C(F)(F)F)c3)cc2)ccn1 . Value?
Reply: 85

Ask: Endpoint output: kinase still bound, per cent of control of COc1ccc(N(C(=O)Oc2c(C)cccc2C)c2ccnc(Nc3ccc(N4CCN(C)CC4)cc3)n2)c(OC)c1 . Value?
Reply: 81

Ask: Endpoint output: kinase still bound, per cent of control of COCC(=O)NC/C=C/c1ccc2ncnc(Nc3ccc(Oc4ccc(C)nc4)c(C)c3)c2c1 . Value?
Reply: 100

Ask: Endpoint output: kinase still bound, per cent of control of C=CC(=O)Nc1ccc(CN(C(=O)Nc2c(Cl)c(OC)cc(OC)c2Cl)c2cc(Nc3ccc(N4CCN(C)CC4)cc3)ncn2)cc1 . Value?
Reply: 100

Ask: Endpoint output: kinase still bound, per cent of control of CS(=O)(=O)N1CCN(Cc2cc3nc(-c4cccc5[nH]ncc45)nc(N4CCOCC4)c3s2)CC1 . Value?
Reply: 100

Ask: Endpoint output: kinase still bound, per cent of control of CCN1CCN(C(=O)Cc2ccc(Nc3ncc(F)c(Nc4ccc(C(=O)Nc5ccccc5Cl)cc4)n3)cc2)CC1 . Value?
Reply: 82

###

- targetDesc: NUAK1 (human)
- testProtocol: KINOMEscan competition binding
- assayContext: compound 10.0 µM
Record form. Attribute: kinase still bound, per cent of control. Fill in for each entry.
Write the number in % without appending the unit.

Ask: Form entry - test system: NUAK1 (human); read-out: kinase still bound, per cent of control; molecule: NC(=O)Nc1cc(-c2cccc(F)c2)sc1C(=O)N[C@@H]1CCCNC1
Reply: 0

Ask: Form entry - test system: NUAK1 (human); read-out: kinase still bound, per cent of control; molecule: C=CC(=O)Nc1ccc(CN(C(=O)Nc2c(Cl)c(OC)cc(OC)c2Cl)c2cc(Nc3ccc(N4CCN(C)CC4)cc3)ncn2)cc1
Reply: 100

Ask: Form entry - test system: NUAK1 (human); read-out: kinase still bound, per cent of control; molecule: COc1ccc(N(C(=O)Oc2c(C)cccc2C)c2ccnc(Nc3ccc(N4CCN(C)CC4)cc3)n2)c(OC)c1
Reply: 30

Ask: Form entry - test system: NUAK1 (human); read-out: kinase still bound, per cent of control; molecule: CN(C)C/C=C/C(=O)Nc1ccc(C(=O)Nc2cccc(Nc3nccc(-c4cccnc4)n3)c2)cc1
Reply: 61

Ask: Form entry - test system: NUAK1 (human); read-out: kinase still bound, per cent of control; molecule: C[C@@H](Oc1cc(-c2cnn(C3CCNCC3)c2)cnc1N)c1c(Cl)ccc(F)c1Cl
Reply: 0.7

Ask: Form entry - test system: NUAK1 (human); read-out: kinase still bound, per cent of control; molecule: O=C1NC(=O)/C(=C/c2ccc3nccc(-c4ccncc4)c3c2)S1
Reply: 100
